Provenance of the data: patent US10253007B2

Task for the reader: assign each of the following molecules its reported efflux ratio.
method_description: Caco-2 cell monolayer membrane transport assay
condition_notes: human, Caco-2
Could you respond with only the numeric value?

Would you kindly share the measured efflux ratio for CO[C@H]1C(=O)[C@]2(C)[C@@H](OC(=O)N(C)C)C[C@H]3OC[C@@]3(OC(C)=O)[C@H]2[C@H](OC(=O)c2ccccc2)[C@]2(O)C[C@H](OC(=O)[C@H](O)[C@@H](NC(=O)OC(C)(C)C)c3ccccc3)C(C)=C1C2(C)C ?
1.73

Would you kindly share the measured efflux ratio for CO[C@H]1C(=O)[C@]2(C)C=C[C@@H](O)[C@](CO)(OC(C)=O)[C@H]2[C@H](OC(=O)c2ccccc2)[C@]2(O)C[C@H](OC(=O)[C@H](O)[C@@H](NC(=O)OC(C)(C)C)c3ccccc3)C(C)=C1C2(C)C ?
4.76

Would you kindly share the measured efflux ratio for CCSC(=O)O[C@H]1C[C@H]2OC[C@@]2(OC(C)=O)[C@H]2[C@H](OC(=O)c3ccccc3)[C@]3(O)C[C@H](OC(=O)[C@H](O)[C@@H](NC(=O)N(C)C)c4ccccc4)C(C)=C([C@@H](OC)C(=O)[C@]12C)C3(C)C ?
5.36

Would you kindly share the measured efflux ratio for CO[C@H]1C(=O)[C@]2(C)[C@@H](OC(=O)N(C)C)C[C@H]3OC[C@@]3(OC(C)=O)[C@H]2[C@H](OC(=O)c2ccccc2)[C@]2(O)C[C@H](OC(=O)[C@H](O)[C@H](CC(C)C)NC(=O)OC(C)(C)C)C(C)=C1C2(C)C ?
1.59

---

method_description: Caco-2 cell monolayer membrane transport assay
condition_notes: human, Caco-2, Papp A-B, Sample-01, Caco-2; A-B; Sample-01
measured_parameter: Papp A→B (×10⁻⁶ cm/s)
All answers are understood in ×10⁻⁶ cm/s, so give the number only.

Would you kindly share the measured Papp A→B for CO[C@H]1C(=O)[C@]2(C)[C@@H](OC(=O)N(C)C)C[C@H]3OC[C@@]3(OC(C)=O)[C@H]2[C@H](OC(=O)c2ccccc2)[C@]2(O)C[C@H](OC(=O)[C@H](O)[C@@H](NC(=O)OC(C)(C)C)c3ccccc3)C(C)=C1C2(C)C ?
11.2

Would you kindly share the measured Papp A→B for COC(=O)O[C@H]1C(=O)[C@]2(C)[C@@H](OC)C[C@H]3OC[C@@]3(OC(C)=O)[C@H]2[C@H](OC(=O)c2ccccc2)[C@]2(O)C[C@H](OC(=O)[C@H](O)[C@@H](NC(=O)OC(C)(C)C)c3ccccc3)C(C)=C1C2(C)C ?
8.45

Would you kindly share the measured Papp A→B for COC(=O)O[C@H]1C(=O)[C@]2(C)[C@@H](OC)C[C@H]3OC[C@@]3(OC(C)=O)[C@H]2[C@H](OC(=O)c2ccccc2)[C@]2(O)C[C@H](OC(=O)[C@H](O)[C@H](CC(C)C)NC(=O)OC(C)(C)C)C(C)=C1C2(C)C ?
8.58

Would you kindly share the measured Papp A→B for CO[C@H]1C(=O)[C@]2(C)[C@@H](OC(=O)N(C)C)C[C@H]3OC[C@@]3(OC(C)=O)[C@H]2[C@H](OC(=O)c2ccccc2)[C@]2(O)C[C@H](OC(=O)[C@H](O)[C@@H](NC(=O)OC(C)(C)C)c3ccccn3)C(C)=C1C2(C)C ?
4.27

---

method_description: Caco-2 cell monolayer membrane transport assay
condition_notes: human, Caco-2, Recovery rate in mass, Mean, Caco-2; A-B; mean of two samples
Output satisfied for recovery not less than 80%; output not satisfied otherwise.

Please tell me: is the compound CO[C@H]1C(=O)[C@]2(C)C=C[C@@H](O)[C@](CO)(OC(C)=O)[C@H]2[C@H](OC(=O)c2ccccc2)[C@]2(O)C[C@H](OC(=O)[C@H](O)[C@@H](NC(=O)OC(C)(C)C)c3ccccc3)C(C)=C1C2(C)C at or over 80% in terms of recovery?
satisfied

Please tell me: is the compound COC(=O)O[C@H]1C[C@H]2OC[C@@]2(OC(C)=O)[C@H]2[C@H](OC(=O)c3ccccc3)[C@]3(O)C[C@H](OC(=O)[C@H](O)[C@H](CC(C)C)NC(=O)OC(C)(C)C)C(C)=C([C@@H](OC)C(=O)[C@]12C)C3(C)C at or over 80% in terms of recovery?
not satisfied

Please tell me: is the compound CO[C@H]1C(=O)[C@]2(C)CC[C@H]3OC[C@@]3(OC(C)=O)[C@H]2[C@H](OC(=O)c2ccccc2)[C@]2(O)C[C@H](OC(=O)[C@H](O)[C@H](CC(C)C)NC(=O)OC(C)(C)C)C(C)=C1C2(C)C at or over 80% in terms of recovery?
not satisfied

Please tell me: is the compound COC(=O)O[C@H]1C[C@H]2OC[C@@]2(OC(C)=O)[C@H]2[C@H](OC(=O)c3ccccc3)[C@]3(O)C[C@H](OC(=O)[C@H](O)[C@@H](NC(=O)OC(C)(C)C)c4ccccn4)C(C)=C([C@@H](OC)C(=O)[C@]12C)C3(C)C at or over 80% in terms of recovery?
satisfied

Please tell me: is the compound CO[C@H]1C(=O)[C@]2(C)[C@@H](OC(=O)N(C)C)C[C@H]3OC[C@@]3(OC(C)=O)[C@H]2[C@H](OC(=O)c2ccccc2)[C@]2(O)C[C@H](OC(=O)[C@H](O)[C@@H](NC(=O)OC(C)(C)C)c3ccccc3)C(C)=C1C2(C)C at or over 80% in terms of recovery?
satisfied

Please tell me: is the compound CO[C@H]1C[C@H]2OC[C@@]2(OC(C)=O)[C@H]2[C@H](OC(=O)c3ccccc3)[C@]3(O)C[C@H](OC(=O)[C@H](O)[C@@H](NC(=O)OC(C)(C)C)c4ccccn4)C(C)=C([C@@H](OC(=O)N(C)C)C(=O)[C@]12C)C3(C)C at or over 80% in terms of recovery?
satisfied
